Molecular target: T1, human VPAC2 receptor (human), P41587
T1 chain: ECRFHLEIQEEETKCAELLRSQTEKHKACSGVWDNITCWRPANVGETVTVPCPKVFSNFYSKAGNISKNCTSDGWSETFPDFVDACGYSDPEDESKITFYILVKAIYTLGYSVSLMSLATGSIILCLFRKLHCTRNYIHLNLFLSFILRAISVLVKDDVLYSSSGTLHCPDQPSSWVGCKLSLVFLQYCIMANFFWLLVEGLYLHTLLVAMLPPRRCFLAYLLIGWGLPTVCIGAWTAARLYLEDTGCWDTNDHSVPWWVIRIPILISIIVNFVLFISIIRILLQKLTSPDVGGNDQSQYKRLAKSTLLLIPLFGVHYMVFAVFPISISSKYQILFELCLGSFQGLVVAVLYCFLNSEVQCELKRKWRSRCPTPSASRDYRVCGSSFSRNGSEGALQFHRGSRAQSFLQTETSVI
Assay: filter binding, VPAC2 cell membranes, displacement of 125I-VIP
Settings: remark: other sources report otherwise
pIC50: −log10 of the molar value.
RECORDED METRIC: pIC50

BINDER: HSDAVFTEQYTXLRXQXAAXXYLQSIXXGGPSSGAPPPS (here or on the partner: C6-HSDAVFTEQY(OMe)TOrnLRAibQK(WPEG40K)AAAibOrnYLQSIOrnOrnGGPSSGAPPPS-NH2) [P533]
RECORDED METRIC: pIC50
ENDPOINT RESULT: 6.02

The measured values listed here are drawn from patent US20080234198A1.
